Ref: BigSolDB 2.1

Conditions: in acetonitrile, 328.15 K
observable: solubility (mole fraction)
Just the number, please, no unit after it.

Could you please provide reported solubility (mole fraction) for CC1(C)COP(=O)(Oc2cccc(OP3(=O)OCC(C)(C)CO3)c2)OC1 ? Thanks! 0.0405

###

Details: in methanol, 308.15 K
observable: solubility (mole fraction)
Just the number, please, no unit after it.

Could you please provide reported solubility (mole fraction) for CC1(C)COP(=O)(Oc2cccc(OP3(=O)OCC(C)(C)CO3)c2)OC1 ? Thanks! 0.0085

###

Conditions: in ethyl acetate, 328.15 K
observable: solubility (mole fraction)
Just the number, please, no unit after it.

Could you please provide reported solubility (mole fraction) for CC1(C)COP(=O)(Oc2cccc(OP3(=O)OCC(C)(C)CO3)c2)OC1 ? Thanks! 0.00348

###

Settings: in ethyl acetate, 308.15 K
observable: solubility (mole fraction)

Could you please provide reported solubility (mole fraction) for CC1(C)COP(=O)(Oc2cccc(OP3(=O)OCC(C)(C)CO3)c2)OC1 ? Thanks! 0.00154

###

Details: in ethyl formate, 308.15 K
observable: solubility (mole fraction)
Just the number, please, no unit after it.

Could you please provide reported solubility (mole fraction) for CC1(C)COP(=O)(Oc2cccc(OP3(=O)OCC(C)(C)CO3)c2)OC1 ? Thanks! 0.00713

###

Conditions: in ethyl formate, 303.15 K
observable: solubility (mole fraction)
Just the number, please, no unit after it.

Could you please provide reported solubility (mole fraction) for CC1(C)COP(=O)(Oc2cccc(OP3(=O)OCC(C)(C)CO3)c2)OC1 ? Thanks! 0.00607

###

Conditions: in ethanol, 303.15 K
observable: solubility (mole fraction)
Just the number, please, no unit after it.

Could you please provide reported solubility (mole fraction) for CC1(C)COP(=O)(Oc2cccc(OP3(=O)OCC(C)(C)CO3)c2)OC1 ? Thanks! 0.00313

###

Conditions: in n-hexane, 303.15 K
observable: solubility (mole fraction)
Just the number, please, no unit after it.

Could you please provide reported solubility (mole fraction) for CC1(C)COP(=O)(Oc2cccc(OP3(=O)OCC(C)(C)CO3)c2)OC1 ? Thanks! 2e-05

###

Settings: in methyl acetate, 313.15 K
observable: solubility (mole fraction)
Just the number, please, no unit after it.

Could you please provide reported solubility (mole fraction) for CC1(C)COP(=O)(Oc2cccc(OP3(=O)OCC(C)(C)CO3)c2)OC1 ? Thanks! 0.00511
